The reported measurements were obtained from the OPERA property sets (Mansouri et al. 2018).

settings: 24 °C
VALUE_TYPE: solubility (µM)
Give the value in µM but do not write µM after it.

Query: Dear colleague, I am looking for the recorded solubility of the following compound: CCOC(=O)Cc1[nH]nc2ccc(Cl)cc12
Response: 943

###

settings: pH 7.0; 20 °C
VALUE_TYPE: solubility (µM)
I only need the number, in µM, no unit after it.

Query: Report solubility for OC(Cn1cncn1)(c1ccc(F)cc1)c1ccccc1F (stereo unspecified) please.
Response: 431

###

conditions: 20 °C
VALUE_TYPE: solubility (µM)
Numeric only. Scale: µM

Guide cases for solubility, answers given:
O=C(O)CCCc1c[nH]c2ccccc12; 1230
CC(C)(C)c1ccc(CCOc2ncnc3ccccc23)cc1; 0.718
CSc1nnc(C(C)(C)C)c(=O)n1N; 5280
COc1cccc(N(C)C(=S)Oc2cccc(C(C)(C)C)c2)n1; 0.968
CCOC(=O)c1cnn(C)c1S(=O)(=O)NC(=O)Nc1nc(OC)cc(OC)n1; 35
CCCCCCC(C)OC(=O)COc1nc(F)c(Cl)c(N)c1Cl (centres undefined); 0.245
O=C1c2ccccc2C(=O)C1C(=O)C(c1ccccc1)c1ccc(Cl)cc1 (centres undefined); 267
CNC(=O)Oc1ccc(C)c(C)c1; 7250

With those in mind, consider the next molecule.
Query: Which solubility is reported for this molecule? COC(=O)/C(C)=C/OP(=S)(OC)OC
Response: 1670

###

settings: 25 °C
VALUE_TYPE: log10 of solubility (log10 of the value in µM)
Transform log10 | Measure solubility | Unit µM

CCn1cc(C(=O)O)c(=O)c2cc3c(cc21)OCO3; 1.09
CCCN(CCC)c1c([N+](=O)[O-])cc(C(F)(F)F)c(N)c1[N+](=O)[O-]; -1.43
CC(Oc1ccc(Oc2cnc3cc(Cl)ccc3n2)cc1)C(=O)OCC1CCCO1 (configuration not stated); 0.97
O=C1OCc2c(Cl)c(Cl)c(Cl)c(Cl)c21; 0.96
CCC1OCC(COc2ccc(Oc3ccccc3)cc2)O1 (configuration not stated); 1.21

Kindly review the next compound as well.
Query: Would you kindly share the measured log10 of solubility for CC(C)C1(C)N=C(c2ncccc2C(=O)O)NC1=O (configuration not stated) ?
Response: 4.64

###

Catalogue of solubility values
details: 20 °C
Answer with a number only, understood to be in µM.

CNC(=O)Oc1ccccc1OC(CCl)OC (stereo not drawn); 5010
CCCCOC(=O)C1(O)c2ccccc2-c2ccccc21; 129

Next item in the queue.
Query: Give the measured solubility of Cc1nn(C)c(OCC(=O)c2ccccc2)c1C(=O)c1ccc(Cl)cc1Cl .
Response: 2230

###

Measured logP, listed per entry.
Could you keep your reply to the number by itself?

CN(C)C(=O)Nc1cc(C(C)(C)C)on1; 1.98
N#CC(=NOCC1OCCO1)c1ccccc1; 2.76
CC(C)(C)c1ccc(CCOc2ncnc3ccccc23)cc1; 5.51

Query: Can you look up the measured logP of CCOCn1c(-c2ccc(Cl)cc2)c(C#N)c(Br)c1C(F)(F)F for me?
Response: 4.83

Query: # get_value(readout='logP', item= CCOP(=S)(OCC)OC(Cl)C(Cl)(Cl)Cl (stereo not given) )
Response: 4.59

###

Quick reference: logP of the listed items.

CCOCN(C(=O)CCl)c1c(C)cccc1CC; 3.03
OC(c1ccc(F)cc1)(c1cncnc1)c1ccccc1Cl (stereo not drawn); 3.18

Query: Please give the measured logP for this molecule: CC(C)C(O)(c1ccc(OC(F)(F)F)cc1)c1cncnc1 (stereo not drawn)
Response: 3.34

Query: Reported logP for CC1COc2ccccc2N1C(=O)C(Cl)Cl (stereo not drawn) : what is it?
Response: 2.7

###

settings: 25 °C
VALUE_TYPE: solubility
The reply should consist of the numeric value with the unit placed after it.

Recorded results for 5 compounds are shown here.
Oc1ccccc1-c1ccccc1; 4110 µM
O=C(O)c1cc(Oc2ccc(C(F)(F)F)cc2Cl)ccc1[N+](=O)[O-]; 332 µM
Cc1cnc(C2=NC(=O)C(C)(C(C)C)N2)c(C(=O)O)c1 (stereo unspecified); 8110 µM
CCCCN(CCCC)SN(C)C(=O)Oc1cccc2c1OC(C)(C)C2; 0.788 µM
CCOc1cc(Oc2ccc(C(F)(F)F)cc2Cl)ccc1[N+](=O)[O-]; 0.298 µM

Okay, now this compound:
Query: Dear colleague, I am looking for the recorded solubility of the following compound: CC1(C)CNC(=NN=C(/C=C/c2ccc(C(F)(F)F)cc2)/C=C/c2ccc(C(F)(F)F)cc2)NC1
Response: 0.0121 µM

###

Recorded measurements of logP, one per entry
Reply with the value as a number alone.

Field: example entries. Status: answers known.
CCC1OCC(COc2ccc(Oc3ccccc3)cc2)O1 (centres undefined); 4.35
CCCCN(CC)C(=O)SCCC; 3.83
COCCOc1ccccc1S(=O)(=O)N=C(O)N=c1nc(OC)[nH]c(OC)n1; 2.04

Consider the additional compound presented here.
Query: Report logP for C=CCN(CC=C)C(=O)C(Cl)Cl please.
Response: 1.84
